Values were extracted from patent US20100278834A1.

# target: hemagglutinin of H5N1 clade 2.3 strain Anhui/1/05 (influenza A virus Anhui/1/05 (H5N1))
# assay-method-text: cell-based or functional assay
metric: IC50, neutralisation of retroviral pseudotypes (µg/mL)

[
  {
    "binder": "FLD132 (antibody, V domains shown) VH: EVQLVQSGAELKMPGESLKISCKASGYTFTNYWIGWVRQTPGKGLEWMGIIFPPDSQTSYSPSFQGQVTFSVDNSISVAYIQWSSLKASDTAIYYCARSGIFDWSAPLVEAFDIWGQGTVVTVSS VL: DIQLTQSPSFLSASVGDGVTITCRASQDIYIYLAWYQQKPGKAPKLLIYAASTLQGGVPSRFSGSGSGTEFTLTINNLQPEDFATYFCQQLNGYPLTFGGGTKVEIK",
    "unit-abbreviation": "µg/mL",
    "result-number": 1.8
  },
  {
    "binder": "FLA3.14 (antibody, V domains shown) VH: EVQLVQSGAEVKKPGESLKISCQASGYSFTSRWIGWVRQMPGKGLEWVGFIYPSDSDVRYSPSFRGQVTISADKSISTAYLQWSSLKASDTAMYFCARLGGNKDYGDYLWYFDLWGRGALVTVSS VL: EIVMTQSPDTLSVSPGERATLSCRASQSVNRRLAWYQQKPGQAPRLLIHDASTRATGIPARFSGSGSGTEFTLTISSLQSEDFAVYYCQQYDNWLSFGQGTRLEIK",
    "unit-abbreviation": "µg/mL",
    "result-number": 0.172
  },
  {
    "binder": "FLD20.19 (antibody, V domains shown) VH: QVQLVQSGAEVKKPGSSVTVSCKASGGTFSNYGISWVRQAPGQGLDWMGGIIPLFGTANYAQKFQGRVTITADESTSSSNMELSSLRSEDTAVYYCARDVHNYDFLTGYPLHLYGMDVWGQGTTVTVSS VL: DIQMTQSPSSLSASVGDRVTITCRASQSISTYLNWYQQKPGIPPKLLINVASSLQSGVPSRFSGSGSGTDFTLTISSLQPEDFASYYCQQTYSSPPTFGQGTKVEIK",
    "unit-abbreviation": "µg/mL",
    "result-number": 0.104
  }
]
